- Assay protocol: Firocoxib pharmacokinetics in sows following IM administration (Example 2)
- Format: in vivo, swine
- Condition: female, Yorkshire×Landrace, pig, plasma; sows, 0.5 mg/kg IM, mean
Measurement name: Cmax (ng/mL)
Express it in ng/mL; write the number only.

I am curious: what Cmax value has been reported for `CC1(C)OC(=O)C(OCC2CC2)=C1c1ccc(S(C)(=O)=O)cc1` ?
108

---

- Assay protocol: Firocoxib pharmacokinetics in sows following IM administration (Example 2)
- Type: in vivo, swine
- Condition: female, Yorkshire×Landrace, pig, plasma; sows, 1.5 mg/kg IM, mean; read-out: MRT0-last
Measurement name: MRT last (h)
Express it in h; write the number only.

I am curious: what MRT last value has been reported for CC1(C)OC(=O)C(OCC2CC2)=C1c1ccc(S(C)(=O)=O)cc1 [firocoxib] ?
26.4
